target: murine P2U receptor (Mus musculus, UniProt P35383); experiment: cytoplasmic free calcium (fura-2) in K562 cells transfected with P2U receptor cDNA; assay type: cell-based; parameters: missing the first 6 nucleotides of the 5' untranslated region of the full length cDNA; expressed in transfected cells; host or cells: K562 human leukemia cells; conditions: stable transfectants; concentrations as high as 1 mM
Sequence (P35383 whole entry): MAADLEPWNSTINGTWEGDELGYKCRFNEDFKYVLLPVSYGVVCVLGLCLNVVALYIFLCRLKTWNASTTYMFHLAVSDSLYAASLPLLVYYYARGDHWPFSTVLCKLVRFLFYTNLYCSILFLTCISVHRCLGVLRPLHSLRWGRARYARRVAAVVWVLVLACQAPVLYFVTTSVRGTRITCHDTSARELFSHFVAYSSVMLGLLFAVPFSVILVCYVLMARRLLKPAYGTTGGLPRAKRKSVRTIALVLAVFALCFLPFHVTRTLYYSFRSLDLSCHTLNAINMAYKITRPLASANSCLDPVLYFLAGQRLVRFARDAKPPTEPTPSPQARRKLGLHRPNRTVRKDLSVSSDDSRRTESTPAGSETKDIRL
assay metric: effect on [Ca^2+ ]i in stable transfectants

Cc1cn([C@H]2C[C@H](O)[C@@H](COP(=O)(O)OP(=O)(O)OP(=O)(O)O)O2)c(=O)[nH]c1=O    had no effect
Nc1ncnc2c1ncn2[C@@H]1O[C@H](COP(=O)(O)OP(=O)(O)CP(=O)(O)O)[C@@H](O)[C@H]1O    had no effect
Nc1ncnc2c1ncn2[C@@H]1O[C@H](CO)[C@@H](O)[C@H]1O    had no effect
Nc1ncnc2c1ncn2[C@@H]1O[C@H](COP(=O)(O)O)[C@@H](O)[C@H]1O    had no effect

---

target: murine P2U receptor (Mus musculus); assay: cytoplasmic free calcium (fura-2) in K562 cells transfected with P2U receptor cDNA; format: cell-based; set-up: missing the first 6 nucleotides of the 5' untranslated region of the full length cDNA; expressed in transfected cells; host or cells: K562 human leukemia cells; conditions: K562 stable transfectants; read-out: EC50 for increases in [Ca^2+ ]i
pEC50: −log10 of the molar value.
assay metric: pEC50

Nc1ncnc2c1ncn2[C@@H]1O[C@H](COP(=O)(O)OP(=O)(O)OP(O)(O)=S)[C@@H](O)[C@H]1O    ~5.02
